Target: Potassium voltage-gated channel subfamily KQT member 2 (Homo sapiens, UniProt O43526)
Sequence (O43526 whole entry): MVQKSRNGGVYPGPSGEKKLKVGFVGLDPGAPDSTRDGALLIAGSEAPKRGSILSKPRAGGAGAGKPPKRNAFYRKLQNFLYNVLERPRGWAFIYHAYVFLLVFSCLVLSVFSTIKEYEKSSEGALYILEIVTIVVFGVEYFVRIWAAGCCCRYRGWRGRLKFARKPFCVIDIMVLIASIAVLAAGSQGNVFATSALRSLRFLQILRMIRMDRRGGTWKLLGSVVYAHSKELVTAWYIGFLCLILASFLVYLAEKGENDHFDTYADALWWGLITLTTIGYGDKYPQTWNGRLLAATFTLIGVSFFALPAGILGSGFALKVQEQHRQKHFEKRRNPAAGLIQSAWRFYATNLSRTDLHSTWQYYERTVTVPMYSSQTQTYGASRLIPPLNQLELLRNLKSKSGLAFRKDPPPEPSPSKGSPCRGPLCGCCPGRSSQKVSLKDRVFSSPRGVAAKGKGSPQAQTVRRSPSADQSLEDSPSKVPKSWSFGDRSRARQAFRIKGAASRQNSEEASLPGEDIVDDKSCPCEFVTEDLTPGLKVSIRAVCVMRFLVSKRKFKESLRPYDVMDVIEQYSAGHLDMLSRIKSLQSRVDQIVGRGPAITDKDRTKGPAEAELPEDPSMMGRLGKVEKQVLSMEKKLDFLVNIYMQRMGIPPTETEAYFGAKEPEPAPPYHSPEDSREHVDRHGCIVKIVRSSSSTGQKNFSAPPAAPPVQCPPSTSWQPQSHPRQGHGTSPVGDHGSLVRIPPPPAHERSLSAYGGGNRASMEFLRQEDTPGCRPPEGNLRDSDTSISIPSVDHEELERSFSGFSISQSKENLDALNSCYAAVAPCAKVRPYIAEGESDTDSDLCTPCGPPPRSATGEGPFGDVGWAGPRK
Test: Agonist activity at KCNQ2 expressed in CHO cells incubated for 3 mins by automated patch clamp assay
parameter.measured: log10 EC50 (log10 of the value in nM)
Record value = log10 of EC50 given in nM.

Some entries whose results are on file:
>  <smiles.text>
O=C(Cc1ccc(F)cc1)Nc1ccccc1N1CCCC1

>  <log10 EC50>
2.85

$$$$
>  <smiles.text>
O=C(Cc1ccc(Cl)cc1)Nc1ccccc1N1CCCC1

>  <log10 EC50>
2.90

$$$$
>  <smiles.text>
O=C(Cc1ccc(F)c(F)c1)Nc1ccccc1N1CCCC1

>  <log10 EC50>
3.24

$$$$
>  <smiles.text>
Cc1cccc(CC(=O)Nc2ccccc2N2CCCC2)c1

>  <log10 EC50>
3.12

$$$$
>  <smiles.text>
O=C(Cc1cccc(Cl)c1)Nc1ccccc1N1CCCC1

>  <log10 EC50>
2.23

$$$$

Query string: Value lookup for log10 EC50; key = O=C(Cc1cccc(F)c1)Nc1ccccc1N1CCCC1
Result string: 2.69

Query string: // log10 EC50 lookup, key: O=C(Cc1cccc(C(F)(F)F)c1)Nc1ccccc1N1CCCC1
Result string: 2.54

Query string: Consider the compound shown here: O=C(Cc1cccc(Cl)c1)Nc1ccccc1-n1cccc1 What is its recorded log10 EC50?
Result string: 4.09

Query string: I'd like to know its log10 EC50. The compound in question is O=C(Cc1ccc(Cl)c(Cl)c1)Nc1ccccc1N1CCCC1
Result string: 3.03

----------
Reported IC50 values for a set of compounds
Target: Potassium voltage-gated channel subfamily KQT member 2 (Homo sapiens, UniProt O43526)
Experiment: Antagonist activity at KCNQ2 expressed in CHO cells incubated for 3 mins by automated patch clamp assay
Give the value in nM but do not write nM after it.

Consider the following illustrative entries.
>  <compound>
CCC(C(=O)Nc1ccccc1N1CCCC1)c1cccc(Cl)c1 (racemic)

>  <value.observed>
240

$$$$
>  <compound>
CCC(C(=O)Nc1ccccc1N1CCCC1)c1ccccc1F (racemic)

>  <value.observed>
440

$$$$

Query string: Item under review: CCCC(C(=O)Nc1ccccc1N1CCCC1)c1ccccc1 (racemic) . Reported IC50?
Result string: 320

Query string: Consider the compound CCC(C(=O)Nc1ccccc1N1CCCC1)c1ccc(OC)c(OC)c1 (racemic) and give its measured IC50.
Result string: 20200

----------
Target: Cytochrome P450 2C9 (Homo sapiens)
Sequence (P11712 whole entry): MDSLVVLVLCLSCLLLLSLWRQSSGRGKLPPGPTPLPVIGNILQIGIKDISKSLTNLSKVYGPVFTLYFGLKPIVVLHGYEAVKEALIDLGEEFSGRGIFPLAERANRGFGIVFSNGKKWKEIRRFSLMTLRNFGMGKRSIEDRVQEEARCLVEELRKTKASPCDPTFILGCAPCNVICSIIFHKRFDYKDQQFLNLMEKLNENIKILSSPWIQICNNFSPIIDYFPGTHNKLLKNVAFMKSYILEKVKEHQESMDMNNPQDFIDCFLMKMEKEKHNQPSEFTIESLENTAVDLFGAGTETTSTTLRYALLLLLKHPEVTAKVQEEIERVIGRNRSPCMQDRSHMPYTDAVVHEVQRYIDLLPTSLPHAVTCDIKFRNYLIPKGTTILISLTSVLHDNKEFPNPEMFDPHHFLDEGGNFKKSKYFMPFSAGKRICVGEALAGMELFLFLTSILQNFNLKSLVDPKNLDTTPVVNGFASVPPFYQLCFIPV
parameter.measured: IC50 (µM)
Kindly answer with a numeric value in µM, unit omitted.

Query string: Item: CC[C@H](C(=O)Nc1ccccc1N1CCCC1)c1ccccc1 Test system: Cytochrome P450 2C9 (Homo sapiens) Read-out: IC50 Value: ?
Result string: 18.9

----------
Test: Plasma concentration in Sprague-Dawley rat at 10 mg/kg, ip after 1 hr by LC.MS analysis
Type: ADME, organism-based
Parameters: dose 10 mg/kg, route intraperitoneal
parameter.measured: concentration at 1 h (ng/mL)
Just the number in ng/mL, nothing appended.

Query string: So what's the measured concentration at 1 h for this one? CC[C@H](C(=O)Nc1ccccc1N1CCCC1)c1ccccc1
Result string: 116

----------
Target: Potassium voltage-gated channel subfamily KQT member 2 (Homo sapiens)
Test: Antagonist activity at KCNQ2 expressed in CHO cells incubated for 3 mins by automated patch clamp assay
parameter.measured: pIC50
# pIC50 is unitless: minus log10 of the molar concentration; print number only

// solved cases for pIC50 follow
>  <molecule>
O=C(Nc1ccccc1N1CCCC1)C1CCc2ccccc21 (racemic)

>  <value.observed>
6.48

$$$$
>  <molecule>
CCC(C(=O)Nc1ccccc1N1CCCC1)c1ccc(Cl)cc1 (racemic)

>  <value.observed>
6.55

$$$$
>  <molecule>
CCC(C(=O)Nc1ccccc1N1CCCC1)c1ccc(F)cc1 (racemic)

>  <value.observed>
6.89

$$$$

Query string: # query: pIC50 of entry CCC(C(=O)Nc1ccccc1N1CCCC1)c1cccc(C)c1 (racemic)
Result string: 6.48
